# credit: patent US20250129103A1

pIC50 for assorted compounds
- tested_on: KRAS G12C (GMPPNP-loaded) and cRAF (Ras-binding domain) interaction (Homo sapiens (Human), UniProt P01116, C118S/C51S/C80L/G12C)
- Sequence (P01116 other isoform, or with tags, fused parts or gaps G12C/C51S/C80L/C118S): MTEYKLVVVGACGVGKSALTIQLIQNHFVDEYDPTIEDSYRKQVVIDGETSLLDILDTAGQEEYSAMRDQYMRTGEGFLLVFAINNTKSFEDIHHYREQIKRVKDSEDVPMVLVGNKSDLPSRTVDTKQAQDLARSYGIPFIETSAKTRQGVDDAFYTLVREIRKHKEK
- experiment_summary: Inhibition of KRAS G12C and cRAF binding (AlphaScreen)
- condition_description: KRAS G12C loaded with GMPPNP, cRaf RBD, 2 hours preincubation; read-out: Raf-1 RBD K-Ras IC50
pIC50: −log10 of the molar value.

compound: N#CC[C@H]1CN(c2nc(OCC34CCCN3CCC4)nc3c2CCN(c2cccc4cccc(Cl)c24)C3)CCN1C(=O)/C=C/CN1[C@@H]2CC[C@H]1COC2 [Compound 168]
pIC50: > 8.00

compound: CC(F)(F)c1noc(/C=C/C(=O)N2CCN(c3nc(OCC45CCCN4CCC5)nc4c(F)c(-c5cccc6cccc(Cl)c56)ncc34)C[C@@H]2CC#N)n1 [Example 13]
pIC50: 7.00 to 8.00

compound: CCc1c(F)ccc2cccc(-c3ncc4c(N5CCN(C(=O)/C=C/CN6CC7CC(C6)O7)[C@@H](CC#N)C5)nc(OC[C@@]56CCCN5C[C@H](F)C6)nc4c3F)c12 [Compound 242]
pIC50: > 8.00

compound: Cc1cc(/C=C/C(=O)N2CCN(c3nc(OC[C@@]45CCCN4C[C@H](F)C5)nc4c(F)c(-c5cccc6cccc(Cl)c56)ncc34)C[C@@H]2CC#N)nc(C)n1 [Example 69]
pIC50: > 8.00

compound: CO[C@@H]1CCN(C/C=C/C(=O)N2CCN(c3nc(OC[C@@]45CCCN4C[C@H](F)C5)nc4c(F)c(-c5cccc6ccc(F)c(F)c56)ncc34)C[C@@H]2CC#N)C1 [Compound 216]
pIC50: > 8.00
